Target: P2X7 receptor (Homo sapiens)
Construct: host or cells: THP-1 cells differentiated with LPS and IFN-γ
Sequence (Q99572 1-595): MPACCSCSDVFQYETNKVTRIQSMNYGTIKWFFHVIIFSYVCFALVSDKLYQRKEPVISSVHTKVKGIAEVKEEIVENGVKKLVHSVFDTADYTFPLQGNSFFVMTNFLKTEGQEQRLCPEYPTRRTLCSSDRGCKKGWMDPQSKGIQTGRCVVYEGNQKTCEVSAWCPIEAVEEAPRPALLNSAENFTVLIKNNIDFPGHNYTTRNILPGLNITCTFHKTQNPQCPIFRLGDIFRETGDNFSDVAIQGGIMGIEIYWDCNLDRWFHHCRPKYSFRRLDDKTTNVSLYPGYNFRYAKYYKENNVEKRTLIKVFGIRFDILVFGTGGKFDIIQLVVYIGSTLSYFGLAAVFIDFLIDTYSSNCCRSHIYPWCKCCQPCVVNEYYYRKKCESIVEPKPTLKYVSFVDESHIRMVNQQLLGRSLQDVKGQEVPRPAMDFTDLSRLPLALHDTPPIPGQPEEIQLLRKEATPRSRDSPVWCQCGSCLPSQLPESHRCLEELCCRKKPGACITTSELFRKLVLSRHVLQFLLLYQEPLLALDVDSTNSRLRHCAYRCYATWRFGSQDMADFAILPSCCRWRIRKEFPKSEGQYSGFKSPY
Test: IL-1β release assay in differentiated THP-1 cells stimulated with BzATP (Example 9)
Type: cell-based
Conditions: 0.3 μM compound (symbols +); differentiated THP-1 cells, BzATP 250 uM; read-out: IL-1β % Inhib. @ 0.3 or 0.1 uM
OBSERVABLE: inhibition at 0.3 µM

Consider the compound shown here: O=C(Cc1ccc(Cl)c(Cl)c1)Nc1cccc2c(=O)n(C(CO)CO)ccc12 [Compound 80] What is its recorded inhibition at 0.3 µM?
> 76%

Consider the compound shown here: O=C(Cc1ccccc1F)Nc1cccc2c(=O)n(CC3(O)CCCCC3)ccc12 [Compound 28] What is its recorded inhibition at 0.3 µM?
0 to 25%

Consider the compound shown here: O=C(CCCc1ccccc1)Nc1cccc2c(=O)n(CC3(O)CCCCC3)ccc12 [Compound 36] What is its recorded inhibition at 0.3 µM?
26 to 50%
